Listed here: items and their measured Vmax.
Substrate: CC(=O)N[C@H]1[C@H](Oc2ccc3c(C)cc(=O)oc3c2)O[C@H](CO)[C@@H](O[C@@H]2O[C@H](CO)[C@@H](O)[C@H](O)[C@H]2NC(C)=O)[C@@H]1O
PROTOCOL TEXT: fluorogenic substrate hydrolysis, Michaelis-Menten non-linear fit
Assay type: biochemical, Pseudoalteromonas aurantia
TEST CONDITIONS: McIlvaine's buffer pH 5.0, substrate 0.01-0.6 mM, temperature not given for kinetics
Enter the number, and then the unit.

Solved cases below.
// Vmax lookup, protein = Chi23 (Pseudoalteromonas aurantia; Q261A) (protein, pET22b NdeI/XhoI, His-tagged (C-terminal by primer design), E. coli BL21(DE3); monomer; forward primer encodes MSKTITYYNS, reverse primer encodes AQSLNS at the C-terminus) MSKTITYYNSGAVPLINASELPYDVVNLAFLSSSSNNPFNLVLSGAIAATESSFTTNTIEAIKVMQHKGQKVLISFGGGTMGSNAYRSLSEDTAKLADSLASFVKNNQLDGVDIDYEDTAAFTGQAGYDGAQFLISLTQELRKRLPSPDYIISHAPQPPYLEQGGYMAGYVEVVELVGQEIDWLNVQFYNNPPWSANPDQIVSSYLNYTKLPNMSPEKVIAGFPVTQNDAGSGYMPVQTIINEVIKPIQQQSSLGGIMNWAFSSDHNGDWIKAIAQSLNS , result: 0.0009 µmol/min/mg

// Vmax lookup, protein = Chi23 (Pseudoalteromonas aurantia; N9A) (protein, pET22b NdeI/XhoI, His-tagged (C-terminal by primer design), E. coli BL21(DE3); monomer; forward primer encodes …, reverse primer encodes AQSLNS at the C-terminus) MSKTITYYASGAVPLINASELPYDVVNLAFLSSSSNNPFNLVLSGAIAATESSFTTNTIEAIKVMQHKGQKVLISFGGGTMGSNAYRSLSEDTAKLADSLASFVKNNQLDGVDIDYEDTAAFTGQAGYDGAQFLISLTQELRKRLPSPDYIISHAPQPPYLEQGGYMAGYVEVVELVGQEIDWLNVQFYNNPPWSANPDQIVSSYLNYTKLPNMSPEKVIAGFPVTQNDAGSGYMPVQTIINEVIKPIQQQSSLGGIMNWQFSSDHNGDWIKAIAQSLNS , result: 0.0042 µmol/min/mg

// Vmax lookup, protein = Chi23 (Pseudoalteromonas aurantia; D229A) (protein, pET22b NdeI/XhoI, His-tagged (C-terminal by primer design), E. coli BL21(DE3); monomer; forward primer encodes MSKTITYYNS, reverse primer encodes AQSLNS at the C-terminus) MSKTITYYNSGAVPLINASELPYDVVNLAFLSSSSNNPFNLVLSGAIAATESSFTTNTIEAIKVMQHKGQKVLISFGGGTMGSNAYRSLSEDTAKLADSLASFVKNNQLDGVDIDYEDTAAFTGQAGYDGAQFLISLTQELRKRLPSPDYIISHAPQPPYLEQGGYMAGYVEVVELVGQEIDWLNVQFYNNPPWSANPDQIVSSYLNYTKLPNMSPEKVIAGFPVTQNAAGSGYMPVQTIINEVIKPIQQQSSLGGIMNWQFSSDHNGDWIKAIAQSLNS , result: 0.0027 µmol/min/mg

// Vmax lookup, protein = Chi23 (Pseudoalteromonas aurantia; T80A) (protein, pET22b NdeI/XhoI, His-tagged (C-terminal by primer design), E. coli BL21(DE3); monomer; forward primer encodes MSKTITYYNS, reverse primer encodes AQSLNS at the C-terminus) MSKTITYYNSGAVPLINASELPYDVVNLAFLSSSSNNPFNLVLSGAIAATESSFTTNTIEAIKVMQHKGQKVLISFGGGAMGSNAYRSLSEDTAKLADSLASFVKNNQLDGVDIDYEDTAAFTGQAGYDGAQFLISLTQELRKRLPSPDYIISHAPQPPYLEQGGYMAGYVEVVELVGQEIDWLNVQFYNNPPWSANPDQIVSSYLNYTKLPNMSPEKVIAGFPVTQNDAGSGYMPVQTIINEVIKPIQQQSSLGGIMNWQFSSDHNGDWIKAIAQSLNS , result: 0.0144 µmol/min/mg

// Vmax lookup, protein = Chi23 (Pseudoalteromonas aurantia; N190A) (protein, pET22b NdeI/XhoI, His-tagged (C-terminal by primer design), E. coli BL21(DE3); monomer; forward primer encodes MSKTITYYNS, reverse primer encodes AQSLNS at the C-terminus) MSKTITYYNSGAVPLINASELPYDVVNLAFLSSSSNNPFNLVLSGAIAATESSFTTNTIEAIKVMQHKGQKVLISFGGGTMGSNAYRSLSEDTAKLADSLASFVKNNQLDGVDIDYEDTAAFTGQAGYDGAQFLISLTQELRKRLPSPDYIISHAPQPPYLEQGGYMAGYVEVVELVGQEIDWLNVQFYANPPWSANPDQIVSSYLNYTKLPNMSPEKVIAGFPVTQNDAGSGYMPVQTIINEVIKPIQQQSSLGGIMNWQFSSDHNGDWIKAIAQSLNS , result: 4e-05 µmol/min/mg

Please look at the following protein next.
// Vmax lookup, protein = Chi23 (Pseudoalteromonas aurantia; G79A) (protein, pET22b NdeI/XhoI, His-tagged (C-terminal by primer design), E. coli BL21(DE3); monomer; forward primer encodes MSKTITYYNS, reverse primer encodes AQSLNS at the C-terminus) MSKTITYYNSGAVPLINASELPYDVVNLAFLSSSSNNPFNLVLSGAIAATESSFTTNTIEAIKVMQHKGQKVLISFGGATMGSNAYRSLSEDTAKLADSLASFVKNNQLDGVDIDYEDTAAFTGQAGYDGAQFLISLTQELRKRLPSPDYIISHAPQPPYLEQGGYMAGYVEVVELVGQEIDWLNVQFYNNPPWSANPDQIVSSYLNYTKLPNMSPEKVIAGFPVTQNDAGSGYMPVQTIINEVIKPIQQQSSLGGIMNWQFSSDHNGDWIKAIAQSLNS , result: 0.0576 µmol/min/mg
